# Tested on: Enterococcus faecalis
# assay procedure: Antibacterial activity against vancomycin-susceptible Enterococcus faecalis assessed as resistant isolates by CLSI M7-A7 broth microdilution method
# Format: functional
Reported Activity values for the following compounds.
readout type: Activity (%)

[
  {
    "smiles text": "CC1(C)S[C@@H]2[C@H](NC(=O)Cc3ccccc3)C(=O)N2[C@H]1C(=O)O",
    "result number": 0
  },
  {
    "smiles text": "CN[C@H](CC(C)C)C(=O)N[C@H]1C(=O)N[C@@H](CC(N)=O)C(=O)N[C@H]2C(=O)N[C@H]3C(=O)N[C@H](C(=O)N[C@H](C(=O)O)c4cc(O)cc(O)c4-c4cc3ccc4O)[C@H](O)c3ccc(c(Cl)c3)Oc3cc2cc(c3O[C@@H]2O[C@H](CO)[C@@H](O)[C@H](O)[C@H]2O[C@H]2C[C@](C)(N)[C@H](O)[C@H](C)O2)Oc2ccc(cc2Cl)[C@H]1O",
    "result number": 0
  },
  {
    "smiles text": "CC(=O)NC[C@H]1CN(c2ccc(N3CCOCC3)c(F)c2)C(=O)O1",
    "result number": 0
  },
  {
    "smiles text": "CC[C@H]1OC(=O)[C@H](C)[C@@H](O[C@H]2C[C@@](C)(OC)[C@@H](O)[C@H](C)O2)[C@H](C)[C@@H](O[C@@H]2O[C@H](C)C[C@H](N(C)C)[C@H]2O)[C@](C)(O)C[C@@H](C)C(=O)[C@H](C)[C@@H](O)[C@]1(C)O",
    "result number": 59.9
  }
]
